# assay-name: The drug is tested on Eubacterium hallii strain: DSM3353 for biotransformation. The drug concentrations were measured before and after a 12-h incubation by liquid-chromatography-coupled mass spectrometry (LC–MS)
# measurement-conditions: anaerobutyricum hallii, 2 µM
observed-property: Bacterial Biotransformation

Here's what some known entries look like.
• COc1ccc([C@@H]2Sc3ccccc3N(CCN(C)C)C(=O)[C@@H]2OC(C)=O)cc1 [DILTIAZEM] = Compound metabolized
• COc1cc2c(c(OC)c1OC)-c1ccc(OC)c(=O)cc1[C@@H](NC(C)=O)CC2 [COLCHICINE] = Compound NOT metabolized
• C#C[C@]1(O)CC[C@H]2[C@@H]3CCC4=Cc5oncc5C[C@]4(C)[C@H]3CC[C@@]21C [DANAZOL] = Compound metabolized
• CCOC(=O)[C@H](CCc1ccccc1)N[C@@H](C)C(=O)N1Cc2ccccc2C[C@H]1C(=O)O = Compound NOT metabolized
• COc1ccc(Cc2nccc3cc(OC)c(OC)cc23)cc1OC [PAPAVERINE] = Compound NOT metabolized

Task item: Tell me its Bacterial Biotransformation given C#C[C@]1(OC(C)=O)CC[C@H]2[C@@H]3CCC4=C/C(=N/O)CC[C@@H]4[C@H]3CC[C@@]21CC [NORGESTIMATE] as the entry.
Reply: Compound NOT metabolized

Task item: Tell me its Bacterial Biotransformation given CC(=O)Oc1ccc(C(c2ccc(OC(C)=O)cc2)c2ccccn2)cc1 [BISACODYL] as the entry.
Reply: Compound metabolized

* * *

# assay-name: The drug is tested on Bacteroides fragilis strain: HMW615 for biotransformation. The drug concentrations were measured before and after a 12-h incubation by liquid-chromatography-coupled mass spectrometry (LC–MS)
# measurement-conditions: 2 µM
observed-property: Bacterial Biotransformation

Here's what some known entries look like.
* CCCCc1nc(Cl)c(CO)n1Cc1ccc(-c2ccccc2-c2nn[nH]n2)cc1 | Compound metabolized
* Cc1ccc(-c2nc3ccc(C)cn3c2CC(=O)N(C)C)cc1 | Compound NOT metabolized
* CC(C)(C)NC[C@H](O)COc1ccccc1C1CCCC1.CC(C)(C)NC[C@H](O)COc1ccccc1C1CCCC1.O=S(=O)(O)O [PENBUTOLOL SULFATE] | Compound NOT metabolized
* CCS(=O)(=O)CCn1c([N+](=O)[O-])cnc1C | Compound metabolized
* OC(c1cc(C(F)(F)F)nc2c(C(F)(F)F)cccc12)C1CCCCN1 (configuration not stated) | Compound NOT metabolized
* Fc1ccc([C@@H]2CCNC[C@H]2COc2ccc3c(c2)OCO3)cc1 | Compound NOT metabolized
* O=C1C(CC[S+]([O-])c2ccccc2)C(=O)N(c2ccccc2)N1c1ccccc1 (configuration not stated) | Compound metabolized
* C[C@H]1O[C@@H](O[C@H]2[C@@H](O)C[C@H](O[C@H]3[C@@H](O)C[C@H](O[C@H]4CC[C@@]5(C)[C@H](CC[C@@H]6[C@@H]5C[C@@H](O)[C@]5(C)[C@@H](C7=CC(=O)OC7)CC[C@]65O)C4)O[C@@H]3C)O[C@@H]2C)C[C@H](O)[C@@H]1O | Compound metabolized
* COc1ccc2c(c1)c(CC(=O)O)c(C)n2C(=O)c1ccc(Cl)cc1 | Compound NOT metabolized
* CC(Oc1c(Cl)cccc1Cl)C1=NCCN1 (configuration not stated) | Compound NOT metabolized

Task item: Tell me its Bacterial Biotransformation given O=C(NCc1ccccc1)OCCO [BURAMATE] as the entry.
Reply: Compound NOT metabolized

Task item: Tell me its Bacterial Biotransformation given O=C(O)c1cc(/N=N/c2ccc(S(=O)(=O)Nc3ccccn3)cc2)ccc1O as the entry.
Reply: Compound metabolized

Task item: Tell me its Bacterial Biotransformation given COc1ccc2c(c1OC)C(=O)O[C@@H]2[C@H]1c2c(cc3c(c2OC)OCO3)CCN1C as the entry.
Reply: Compound NOT metabolized

Task item: Tell me its Bacterial Biotransformation given CCOC(=O)[C@H](CCc1ccccc1)N[C@@H](C)C(=O)N1Cc2ccccc2C[C@H]1C(=O)O as the entry.
Reply: Compound metabolized

* * *

# assay-name: The drug is tested on Anaerococcus hydrogenalis strain: DSM7454 for biotransformation. The drug concentrations were measured before and after a 12-h incubation by liquid-chromatography-coupled mass spectrometry (LC–MS)
# measurement-conditions: 2 µM
observed-property: Bacterial Biotransformation

- O=C1[C@H](CC[C@H](O)c2ccc(F)cc2)[C@@H](c2ccc(O)cc2)N1c1ccc(F)cc1: Compound NOT metabolized
- CC1OC(OC2C(O)CC(OC3C(O)CC(OC4CCC5(C)C(CCC6C5CCC5(C)C(C7=CC(=O)OC7)CCC65O)C4)OC3C)OC2C)CC(O)C1O (stereo not drawn): Compound NOT metabolized

* * *

# measurement-conditions: bacteroides stercoris, 12 h, 2 µM
# Description: The drug is tested on Bacteroides stercoris strain: ATCC43183 for biotransformation. The drug concentrations were measured before and after a 12-h incubation by liquid-chromatography-coupled mass spectrometry (LC–MS)
observed-property: Bacterial Biotransformation

* CC(NC(C)(C)C)C(=O)c1cccc(Cl)c1 (stereo not given) [BUPROPION] | Compound NOT metabolized
* CCOC(=O)[C@H](CCc1ccccc1)N[C@@H](C)C(=O)N1Cc2ccccc2C[C@H]1C(=O)O | Compound metabolized
* CCCC1O[C@@H]2C[C@H]3[C@@H]4CCC5=CC(=O)C=C[C@]5(C)[C@H]4[C@@H](O)C[C@]3(C)[C@]2(C(=O)CO)O1 (stereo not given in full) [BUDESONIDE] | Compound metabolized
* O=C(O)COCCN1CCN(C(c2ccccc2)c2ccc(Cl)cc2)CC1 (stereo not given) [CETIRIZINE] | Compound metabolized

Task item: Tell me its Bacterial Biotransformation given Cc1nc(Nc2ncc(C(=O)Nc3c(C)cccc3Cl)s2)cc(N2CCN(CCO)CC2)n1.O [DASATINIB] as the entry.
Reply: Compound metabolized

Task item: Tell me its Bacterial Biotransformation given CCCN(CCC)CCc1cccc2c1CC(=O)N2 [ROPINIROLE] as the entry.
Reply: Compound NOT metabolized

Task item: Tell me its Bacterial Biotransformation given CC1Cc2ccccc2N1NC(=O)c1ccc(Cl)c(S(N)(=O)=O)c1 (stereo not given) [INDAPAMIDE] as the entry.
Reply: Compound NOT metabolized

* * *

# measurement-conditions: bacteroides eggerthii, 12 h, 2 µM
# Description: The drug is tested on Bacteroides eggerthii strain: DSM20697 for biotransformation. The drug concentrations were measured before and after a 12-h incubation by liquid-chromatography-coupled mass spectrometry (LC–MS)
observed-property: Bacterial Biotransformation

* O=c1[nH]c2ccccc2n1C1CCN(CCCC(c2ccc(F)cc2)c2ccc(F)cc2)CC1 [PIMOZIDE] | Compound NOT metabolized
* CN(CCOc1ccc(CC2SC(=O)NC2=O)cc1)c1ccccn1.O=C(O)/C=C\C(=O)O (centres undefined) [ROSIGLITAZONE MALEATE] | Compound NOT metabolized
* O=C(Nc1ccccc1)OCC(CN1CCCCC1)OC(=O)Nc1ccccc1 (centres undefined) | Compound NOT metabolized

* * *

# assay-name: The drug is tested on Bacteroides pectinophilus strain: ATCC43243 for biotransformation. The drug concentrations were measured before and after a 12-h incubation by liquid-chromatography-coupled mass spectrometry (LC–MS)
# measurement-conditions: 2 µM
observed-property: Bacterial Biotransformation

Here's what some known entries look like.
* CCOC(=O)[C@H](CCc1ccccc1)N[C@@H](C)C(=O)N1[C@H](C(=O)O)C[C@@H]2CCC[C@@H]21 | Compound NOT metabolized
* CN(CCOc1ccc(CC2SC(=O)NC2=O)cc1)c1ccccn1.O=C(O)/C=C\C(=O)O (stereo not given) [ROSIGLITAZONE MALEATE] | Compound NOT metabolized
* CNCCC(Oc1ccc(C(F)(F)F)cc1)c1ccccc1 (stereo not given) | Compound metabolized
* CCC(C)n1ncn(-c2ccc(N3CCN(c4ccc(OCC5COC(Cn6cncn6)(c6ccc(Cl)cc6Cl)O5)cc4)CC3)cc2)c1=O (stereo not given) | Compound NOT metabolized
* CC(O)(CS(=O)(=O)c1ccc(F)cc1)C(=O)Nc1ccc(C#N)c(C(F)(F)F)c1 (stereo not given) [BICALUTAMIDE] | Compound NOT metabolized
* C#C[C@]1(O)CC[C@H]2[C@@H]3CCC4=CC(=O)CC[C@@H]4[C@H]3CC[C@@]21CC | Compound NOT metabolized
* C[C@H]1O[C@@H](O[C@H]2[C@@H](O)C[C@H](O[C@H]3[C@@H](O)C[C@H](O[C@H]4CC[C@@]5(C)[C@H](CC[C@@H]6[C@@H]5C[C@@H](O)[C@]5(C)[C@@H](C7=CC(=O)OC7)CC[C@]65O)C4)O[C@@H]3C)O[C@@H]2C)C[C@H](O)[C@@H]1O | Compound NOT metabolized
* CN1CCN(C(=O)O[C@H]2c3nccnc3C(=O)N2c2ccc(Cl)cn2)CC1 | Compound NOT metabolized

Turning now to a further record.
Task item: Tell me its Bacterial Biotransformation given COc1ccc2cc([C@H](C)C(=O)O)ccc2c1 as the entry.
Reply: Compound NOT metabolized

* * *

# assay-name: The drug is tested on Coprococcus comes strain: ATCC27758 for biotransformation. The drug concentrations were measured before and after a 12-h incubation by liquid-chromatography-coupled mass spectrometry (LC–MS)
# Type: ADME
# Set-up: dose 2 uM, timepoint 0 vs 12 hours
# measurement-conditions: 2 µM
observed-property: Bacterial Biotransformation

Here's what some known entries look like.
• CS(=O)(=O)O.O.O.O.O=C1Cc2cc(CCN3CCN(c4nsc5ccccc45)CC3)c(Cl)cc2N1 [ZIPRASIDONE MESYLATE] = Compound NOT metabolized
• N#Cc1ccc2[nH]cc(CCCCN3CCN(c4ccc5oc(C(N)=O)cc5c4)CC3)c2c1 = Compound NOT metabolized
• O=C1N=C([O-])NC1(c1ccccc1)c1ccccc1.[Na+] [PHENYTOIN SODIUM] = Compound NOT metabolized
• CC1Cc2ccccc2N1NC(=O)c1ccc(Cl)c(S(N)(=O)=O)c1 (stereo unspecified) [INDAPAMIDE] = Compound NOT metabolized
• COc1ccccc1OCC(O)CN1CCN(CC(=O)Nc2c(C)cccc2C)CC1 (stereo unspecified) = Compound NOT metabolized
• CC[C@H](C)C(=O)O[C@H]1CCC=C2C=C[C@H](C)[C@H](CC[C@@H]3C[C@@H](O)CC(=O)O3)[C@H]21 = Compound metabolized

Task item: Tell me its Bacterial Biotransformation given COC(=O)C1=C(C)NC(C)=C(C(=O)OC(C)C)C1c1cccc2nonc12 (stereo unspecified) as the entry.
Reply: Compound NOT metabolized

Task item: Tell me its Bacterial Biotransformation given Br.COc1ccc2c(c1)[C@]13CCCC[C@@H]1[C@H](C2)N(C)CC3.O [DEXTROMETHORPHAN HYDROBROMIDE] as the entry.
Reply: Compound NOT metabolized

Task item: Tell me its Bacterial Biotransformation given C=CC[C@@H]1/C=C(\C)C[C@H](C)C[C@H](OC)[C@H]2O[C@@](O)(C(=O)C(=O)N3CCCC[C@H]3C(=O)O[C@H](/C(C)=C/[C@@H]3CC[C@@H](O)[C@H](OC)C3)[C@H](C)[C@@H](O)CC1=O)[C@H](C)C[C@@H]2OC.O as the entry.
Reply: Compound metabolized

Task item: Tell me its Bacterial Biotransformation given C[C@@H]1CC[C@H]2[C@@H](C)C(=O)O[C@@H]3O[C@@]4(C)CC[C@@H]1[C@]32OO4 as the entry.
Reply: Compound metabolized

Task item: Tell me its Bacterial Biotransformation given CCOc1ccc(NC(C)=O)cc1 as the entry.
Reply: Compound NOT metabolized
